Target: PDE4C (Homo sapiens, UniProt Q08493)
Construct: purchased MDS PHARMA
Sequence (Q08493 whole entry): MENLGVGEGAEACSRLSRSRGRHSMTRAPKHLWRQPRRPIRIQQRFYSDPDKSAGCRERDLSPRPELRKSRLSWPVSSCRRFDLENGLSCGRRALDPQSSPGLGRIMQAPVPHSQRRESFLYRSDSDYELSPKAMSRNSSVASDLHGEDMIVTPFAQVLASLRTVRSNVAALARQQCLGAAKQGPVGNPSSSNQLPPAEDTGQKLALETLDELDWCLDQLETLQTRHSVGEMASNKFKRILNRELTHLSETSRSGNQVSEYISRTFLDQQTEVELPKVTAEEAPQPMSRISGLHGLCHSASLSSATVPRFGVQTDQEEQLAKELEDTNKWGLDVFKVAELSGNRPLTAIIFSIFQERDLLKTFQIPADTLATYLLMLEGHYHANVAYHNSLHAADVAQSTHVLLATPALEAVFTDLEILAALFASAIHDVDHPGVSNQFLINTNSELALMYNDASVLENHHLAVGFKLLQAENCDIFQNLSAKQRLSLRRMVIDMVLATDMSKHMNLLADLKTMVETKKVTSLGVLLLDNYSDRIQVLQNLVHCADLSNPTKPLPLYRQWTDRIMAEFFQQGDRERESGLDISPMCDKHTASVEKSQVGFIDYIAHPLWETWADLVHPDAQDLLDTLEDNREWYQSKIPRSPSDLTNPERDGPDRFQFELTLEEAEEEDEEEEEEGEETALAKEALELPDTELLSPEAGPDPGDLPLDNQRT
Assay: PDE4C inhibition, IMAP fluorescence polarization protocol
Assay type: biochemical
Details: 1 μM; mean ± SEM, 3 experiments
Reported inhibition at 1 µM values are given for each entry in this list.
OBSERVATION_TYPE: inhibition at 1 µM

{"COMPOUND": "COc1ccc(CCNS(=O)(=O)c2ccccc2)cc1OC [6f (LASSBio-965)]", "MEASUREMENT": "9.7%"}
{"COMPOUND": "COc1ccc(CCN(Cc2ccccc2)S(=O)(=O)c2cc3c(cc2C)OCO3)cc1OC [6c (LASSBio-960)]", "MEASUREMENT": "2%"}
{"COMPOUND": "COc1ccc(CCN(C)S(=O)(=O)c2ccccc2)cc1OC [6g (LASSBio-982)]", "MEASUREMENT": "4.1%"}
{"COMPOUND": "COc1ccc(CCN(C)S(=O)(=O)c2cc3c(cc2C)OCO3)cc1OC [6b (LASSBio-959)]", "MEASUREMENT": "5.6%"}
{"COMPOUND": "C=CCN(CCc1ccc(OC)c(OC)c1)S(=O)(=O)c1cc2c(cc1C)OCO2 [6d (LASSBio-961)]", "MEASUREMENT": "6.3%"}
{"COMPOUND": "Cc1cc2c(cc1S(=O)(=O)NCCc1ccccc1)OCO2 [5 (LASSBio-964)]", "MEASUREMENT": "3.9%"}
